Test: qHTS Assay for Modulators of miRNAs and/or Inhibitors of miR-21; note: potency is the fitted concentration of half-maximal effect; nearly all actives have a fitted effect of over 55% in size
Details: HeLa miR-21-FLuc reporter, luciferase luminescence, 48 h; actives lower the signal
The whole screen tested about 340,000 compounds, of which about 3,300 (0.97%) were called active. Another 9% or so got no clear call; they are omitted. The list shows a part of the results.
measurementName: Potency

O=C(Cn1cnc2ccccc2c1=O)c1ccc(Cl)cc1
7.36 µM (active)

// moving on: another record for Potency
Entry O=C(COC(=O)c1cc2ccccc2oc1=O)Nc1ccc(F)cc1F needs its Potency filled in; supply it. 6.56 µM (active)

----------
Reported Potency by item:
Assay: qHTS Assay for Modulators of miRNAs and/or Inhibitors of miR-21; note: potency is the fitted concentration of half-maximal effect; nearly all actives have a fitted effect of over 55% in size
Details: HeLa miR-21-FLuc reporter, luciferase luminescence, 48 h; actives lower the signal
Out of some 340,000 compounds screened, about 3,300 (0.97%) were called active. Another 9% or so got no clear call; they are omitted. The list shows a part of the results.

Example entries and their recorded answers appear below.
CCn1cnc2cc(NCc3ccc(Cl)cc3)ccc21
3.69 µM (active)
COc1ccc(NC(=O)c2sc3nc[nH]c(=O)c3c2C)cc1
5.85 µM (active)
Cc1ccc(C(=O)Nc2cccnc2Cl)cc1Cl
3.69 µM (active)
CC(C)n1cnc2cc(NCc3ccco3)ccc21
11.7 µM (active)
COc1cc(OC)c(C(=O)Nc2ccc3ccccc3c2)cc1OC
2.93 µM (active)
O=C(Nc1cccnc1Cl)c1cc(-c2cccc(O)c2)on1
18.5 µM (active)

Please look at the following compound next.
Given the compound Cc1ccc(CNc2ccc3c(c2)ncn3C)cc1 , write its reported Potency. 3.29 µM (active)

Values were extracted from PubChem BioAssay AID2289.
